# credit: patent US9718790B2

Please provide measured pIC50 for the entries that follow.
# test-system: human P2X3 receptor (Homo sapiens (Human), UniProt P56373)
# Sequence (P56373 whole entry): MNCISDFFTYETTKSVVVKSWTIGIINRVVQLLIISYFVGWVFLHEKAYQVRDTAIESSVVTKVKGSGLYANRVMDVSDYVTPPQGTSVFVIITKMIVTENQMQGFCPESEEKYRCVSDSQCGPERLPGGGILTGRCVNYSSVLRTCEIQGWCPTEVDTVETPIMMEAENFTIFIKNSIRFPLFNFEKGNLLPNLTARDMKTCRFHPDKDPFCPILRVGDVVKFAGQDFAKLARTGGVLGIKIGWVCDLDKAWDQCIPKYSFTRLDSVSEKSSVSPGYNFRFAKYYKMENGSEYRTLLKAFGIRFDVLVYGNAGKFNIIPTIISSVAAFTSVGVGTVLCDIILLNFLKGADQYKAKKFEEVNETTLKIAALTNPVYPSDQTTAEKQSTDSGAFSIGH
# test-name: Evaluation of human P2X3 receptor inhibitory activity (Fluo-3 calcium fluorescence, FDSS 3000, ATP stimulation);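 note: stimulus was 50 nM ATP with fluorescence followed for 3 min, and the response per well was peak post-ATP fluorescence divided by the reading at measurement start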
# Type: cell-based
# assay-setup: human P2X3 receptor, Test Example 1
Field pIC50 (float): negative decimal logarithm of the concentration in molar.

Could you share which pIC50 value was measured for CCn1c(=O)[nH]/c(=N\c2ccc(Oc3cccc(C#N)n3)cc2)n(Cc2ccc(Cl)cc2)c1=O ?
8.70

Cc1cnc(Oc2ccc(/N=c3\[nH]c(=O)n(C[C@H](O)CO)c(=O)n3Cc3ccc(Cl)cc3)cc2)s1 ?
8.22

O=c1[nH]/c(=N\c2ccc(Oc3ccon3)c(F)c2)n(Cc2ccc(Cl)cc2)c(=O)n1CC(CO)CO ?
8.40

Cc1cccc(Oc2ccc(/N=c3\[nH]c(=O)n(CC(CO)CO)c(=O)n3Cc3ccc(Cl)cc3)cc2)n1 ?
7.92

Cn1c(=O)[nH]/c(=N\c2ccc(Oc3cncc(C(=O)O)n3)cc2)n(Cc2ccc(Cl)cc2)c1=O ?
7.89

Cc1ccc(Cn2c(=O)n(C)c(=O)[nH]/c2=N\c2ccc(Oc3nccc(C(=O)O)n3)cc2)cc1 ?
7.21

Cc1ccc(Cn2c(=O)n(C)c(=O)[nH]/c2=N\c2ccc(Oc3cccc(/C=C/C(=O)O)c3)cc2)cc1 ?
8.05

* * *

# test-system: human P2X3 receptor (Homo sapiens (Human))
# test-name: Evaluation of human P2X3 receptor inhibitory activity (Fluo-3 calcium fluorescence, FDSS 3000, ATP stimulation)
# Format: cell-based
# assay-setup: C6BU-1 cells stably expressing human P2X3 receptor, Fluo-3 fluorescence, FDSS 3000
Measured IC50 determines class: low: < 10 nM; moderate: ≥ 10 nM and < 90 nM; high: ≥ 90 nM

Record Cc1ccc(Cn2c(=O)n([C@@H](C)[C@@H](C)C(=O)O)c(=O)[nH]/c2=N\c2ccc(OCC3CC3)c(Cl)c2)cc1 — which class?
moderate

C[C@@H](Oc1ccc(/N=c2\[nH]c(=O)n(C[C@H](O)CO)c(=O)n2Cc2ccc(Cl)cc2)cc1)C(F)(F)F ?
moderate

COC(=O)[C@@H](C)Cn1c(=O)[nH]/c(=N\c2cccc(C3CCCC3)c2)n(Cc2ccc(C)cc2)c1=O ?
high

CCc1nc2ccc(/N=c3\[nH]c(=O)n(CCCC(=O)O)c(=O)n3Cc3ccc(Cl)cc3)cc2s1 ?
moderate

CCCOc1ccc(/N=c2\[nH]c(=O)n([C@@H](C)[C@@H](C)C(=O)OC)c(=O)n2Cc2ccc(C)cc2)cc1 ?
moderate

COC(=O)Cn1c(=O)[nH]/c(=N\c2ccc(Oc3ccc(C)nc3)cc2)n(Cc2ccc(Cl)cc2)c1=O ?
low

COC(=O)[C@@H](C)[C@H](C)n1c(=O)[nH]/c(=N\c2ccc(OC(C)C)c(C)c2)n(Cc2ccc(Cl)cc2)c1=O ?
high

CCOC(=O)C1(Cn2c(=O)[nH]/c(=N\c3ccc(OCC4CC4)cc3)n(Cc3ccc(C)cc3)c2=O)CC1 ?
low

Cc1cc(/N=c2\[nH]c(=O)n([C@@H](C)[C@H](C)C(=O)O)c(=O)n2Cc2ccc(Cl)cc2)ccc1OC(C)C ?
high

CCc1oc2ccc(/N=c3\[nH]c(=O)n(CC(C)(C)C(=O)OC)c(=O)n3Cc3ccc(C)cc3)cc2c1C ?
low

O=C(O)CCn1c(=O)[nH]/c(=N\c2ccc(OCc3cccnc3)cc2)n(Cc2ccc(Cl)cc2)c1=O ?
high

Cc1ccc(Cn2c(=O)n(CCC(=O)O)c(=O)[nH]/c2=N\c2ncc(-c3ccccc3)s2)cc1 ?
high

CC(C)n1ncc2cc(/N=c3\[nH]c(=O)n([C@@H](C)[C@@H](C)C(=O)O)c(=O)n3Cc3ccc(Cl)cc3)ccc21 ?
high

COC(=O)[C@@H](C)Cn1c(=O)[nH]/c(=N\c2ccc(OC3CCCC3)nc2)n(Cc2ccc(C)cc2)c1=O ?
high

CCOc1ccc(/N=c2\[nH]c(=O)n([C@@H](C)[C@@H](C)C(=O)OC)c(=O)n2Cc2ccc(C)cc2)cc1Cl ?
moderate

C[C@@H](C(=O)O)[C@H](C)n1c(=O)[nH]/c(=N\c2ccc3c(c2)CCOC3)n(Cc2ccc(Cl)cc2)c1=O ?
high

COC(=O)CN1CCC(Cn2c(=O)[nH]/c(=N\c3ccc(OC(C)C)c(C)c3)n(Cc3ccc(Cl)cc3)c2=O)CC1 ?
moderate

CCn1c(=O)[nH]/c(=N\c2ccc(Oc3cccc(C(=O)OC)c3)cc2)n(Cc2ccc(Cl)cc2)c1=O ?
moderate

CC(C)Oc1ccc(/N=c2\[nH]c(=O)n(CC3(CO)COC3)c(=O)n2Cc2ccc(Cl)cc2)cc1Cl ?
low

CCn1c(=O)[nH]/c(=N\c2ccc(Oc3cncc(C(=O)O)c3)cc2)n(Cc2ccc(Cl)cc2)c1=O ?
low

C=Cc1cc(/N=c2\[nH]c(=O)n(C[C@H](C)C(=O)O)c(=O)n2Cc2ccc(C)cc2)ccc1OC(C)C ?
low

COC(=O)[C@@H](C)Cn1c(=O)[nH]/c(=N\c2ccc(OC(F)F)c(Cl)c2)n(Cc2ccc(C)cc2)c1=O ?
moderate

CCCCOc1ccc(/N=c2\[nH]c(=O)n(CC3(C(=O)OCC)CC3)c(=O)n2Cc2ccc(Cl)cc2)cc1 ?
moderate

COC(=O)[C@@H](C)Cn1c(=O)[nH]/c(=N\c2ccc(OC3CCC3)nc2)n(Cc2ccc(C)cc2)c1=O ?
moderate
